- Target: HLA-A*02:03
- Experiment: IEDB peptide-MHC binding, purified MHC/competitive/fluorescence; filed as Kd, often an IC50 or EC50 that approximates it; bounds were set here for any values at or beyond the usual limits of such assays
- Measurement context: source organism: Burkholderia orbicola
Experimental endpoint: Kd

Using the record for RIEQLYPFA , report its Kd.
≥ 20 µM

====

- Target: HLA-B*48:01
- Experiment: IEDB peptide-MHC binding, purified MHC/competitive/fluorescence; filed as Kd, often an IC50 or EC50 that approximates it; bounds were set here for any values at or beyond the usual limits of such assays
- Measurement context: source organism: Burkholderia mallei SAVP1
Experimental endpoint: pKd
One number for each entry, as −log10 of the molar value.

Using the record for RQYERYTAL , report its pKd.
7.26
